src = patent US20080044360A1

- systemName: T1, rat collagen, acid soluble, type I, rat tail (Upstate 08-115) (rat, UniProt P02454 152-1207; P02466 86-1125)
- T1 construct: tissue extract, gelled and dried in wells; also called dried rat collagen
- T1 sequence (P02454 152-1207, chain 1 of 2): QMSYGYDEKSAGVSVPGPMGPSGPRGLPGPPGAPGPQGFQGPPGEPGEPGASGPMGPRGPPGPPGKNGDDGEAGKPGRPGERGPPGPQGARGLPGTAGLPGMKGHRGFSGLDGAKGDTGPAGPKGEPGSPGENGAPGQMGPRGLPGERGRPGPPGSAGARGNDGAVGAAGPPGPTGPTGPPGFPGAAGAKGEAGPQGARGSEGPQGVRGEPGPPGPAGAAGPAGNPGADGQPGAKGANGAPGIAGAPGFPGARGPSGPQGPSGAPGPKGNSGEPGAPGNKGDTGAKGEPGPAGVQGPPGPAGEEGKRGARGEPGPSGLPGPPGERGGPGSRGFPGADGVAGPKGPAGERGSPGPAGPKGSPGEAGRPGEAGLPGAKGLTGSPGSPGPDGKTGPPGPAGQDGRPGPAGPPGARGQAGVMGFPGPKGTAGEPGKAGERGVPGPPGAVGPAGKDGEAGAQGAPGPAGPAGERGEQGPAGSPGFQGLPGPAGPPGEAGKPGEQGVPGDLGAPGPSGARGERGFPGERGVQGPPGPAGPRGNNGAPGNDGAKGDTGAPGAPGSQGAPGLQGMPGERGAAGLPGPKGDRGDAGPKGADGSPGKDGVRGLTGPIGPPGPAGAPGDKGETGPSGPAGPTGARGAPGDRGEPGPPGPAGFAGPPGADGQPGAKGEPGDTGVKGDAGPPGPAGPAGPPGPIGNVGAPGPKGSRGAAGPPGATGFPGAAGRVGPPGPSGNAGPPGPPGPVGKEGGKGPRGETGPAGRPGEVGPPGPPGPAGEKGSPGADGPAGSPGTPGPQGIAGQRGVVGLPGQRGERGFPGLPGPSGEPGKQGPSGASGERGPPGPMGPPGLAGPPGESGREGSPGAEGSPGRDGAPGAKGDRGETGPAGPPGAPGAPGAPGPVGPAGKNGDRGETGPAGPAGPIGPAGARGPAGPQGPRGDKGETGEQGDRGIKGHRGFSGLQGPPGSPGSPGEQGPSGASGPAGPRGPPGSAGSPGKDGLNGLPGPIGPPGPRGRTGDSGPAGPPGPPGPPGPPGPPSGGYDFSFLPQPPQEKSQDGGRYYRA
- T1 sequence (P02466 86-1125, chain 2 of 2): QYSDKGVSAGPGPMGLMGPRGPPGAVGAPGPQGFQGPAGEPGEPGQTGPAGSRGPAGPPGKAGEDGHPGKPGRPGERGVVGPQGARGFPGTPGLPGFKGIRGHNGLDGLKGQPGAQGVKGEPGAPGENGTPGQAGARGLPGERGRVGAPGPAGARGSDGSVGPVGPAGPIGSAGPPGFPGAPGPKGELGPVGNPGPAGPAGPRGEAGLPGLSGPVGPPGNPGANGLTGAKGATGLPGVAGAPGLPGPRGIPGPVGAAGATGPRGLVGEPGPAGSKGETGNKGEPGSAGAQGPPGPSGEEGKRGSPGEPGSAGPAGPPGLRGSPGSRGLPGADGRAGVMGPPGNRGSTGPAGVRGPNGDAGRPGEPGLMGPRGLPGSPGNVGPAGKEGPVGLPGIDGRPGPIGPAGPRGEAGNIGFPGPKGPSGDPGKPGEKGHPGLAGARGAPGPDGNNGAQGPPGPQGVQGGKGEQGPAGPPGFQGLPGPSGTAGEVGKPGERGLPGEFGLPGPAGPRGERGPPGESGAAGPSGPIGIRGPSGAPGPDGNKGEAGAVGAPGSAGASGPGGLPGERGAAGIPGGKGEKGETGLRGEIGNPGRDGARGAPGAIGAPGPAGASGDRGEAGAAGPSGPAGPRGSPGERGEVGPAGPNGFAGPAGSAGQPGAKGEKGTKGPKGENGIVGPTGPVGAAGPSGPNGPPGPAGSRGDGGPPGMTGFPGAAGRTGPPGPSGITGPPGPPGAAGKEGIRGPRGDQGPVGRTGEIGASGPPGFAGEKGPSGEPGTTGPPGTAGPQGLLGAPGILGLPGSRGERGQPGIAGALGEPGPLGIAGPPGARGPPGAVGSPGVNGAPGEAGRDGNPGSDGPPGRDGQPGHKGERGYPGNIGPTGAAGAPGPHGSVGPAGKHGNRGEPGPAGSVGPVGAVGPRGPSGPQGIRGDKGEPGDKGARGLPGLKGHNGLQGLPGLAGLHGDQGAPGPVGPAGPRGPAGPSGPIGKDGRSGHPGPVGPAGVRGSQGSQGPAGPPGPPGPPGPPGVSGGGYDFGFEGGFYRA
- assayExplanation: dried collagen assay; further: test concentration or dose not given here
Bridge positions count the residues as written; N and C are the ends. Square brackets hold non-standard residues; d marks the D form. Ends that are not written are not given here.
Listed here: items and their measured % bound.
parameter: % bound (%)

1) YHA[dC]YQAGCWIW (disulfide 4-9 (inferred); not fully specified (C-terminus); printed as YHAcYQAGCWIW, cyclic, disulfide) [SEQ ID NO 155] | 11
2) GAWTCSGDEYTWHCNYE (disulfide 5-14 (inferred), cyclic, disulfide) [SEQ ID NO 129] | 84
3) GQWTCSGDAYTWHCNYE (disulfide 5-14 (inferred); not fully specified (C-terminus), cyclic, disulfide) [SEQ ID NO 144] | 77
4) [dQ]WTCSGDEYTWHCNYE (disulfide 4-13 (inferred); not fully specified (N-terminus, C-terminus); printed as qWTCSGDEYTWHCNYE, cyclic, disulfide) [SEQ ID NO 164] | 31
5) GQWTCSGDEYTWHCNAE (disulfide 5-14 (inferred); not fully specified (C-terminus), cyclic, disulfide) [SEQ ID NO 150] | 9
